- protocol_text: counter-screen for M1 agonists: effect in parental CHO-K1 cells (AID 602248);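 note: untransfected CHO-K1 host cells lacking M1 receptor as counterscreen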
- test_parameters: Fluo-8 calcium fluorescence, at 3 µM, scaled to maximal ATP response, vehicle zero
About 1,700 (0.47%) of roughly 360,000 compounds were called active. Cut-off read from the data, not from the text of the source: active = activation above about 15%; inactive = the rest. The sample as a whole holds a higher share of actives than the screen did.
Valid outcomes are listed here; reply with one: active, inactive

Below, 6 compounds whose answers are already recorded.
CN(NC(=O)C1CC(=O)N(c2ccccc2)C1)C1=NS(=O)(=O)c2ccccc21 (stereo unspecified)    inactive
Oc1ccc2ccc3cccc[n+]3c2c1    active
O=C(NNC(=S)NC(=O)c1cn(-c2ccccc2)nc1-c1ccccc1)c1ccncc1    active
O=C(CC(NC(=O)c1ccccc1)c1ccccc1)Nc1ccc(F)c(F)c1 (stereo unspecified)    inactive
CSc1ncccc1C(=O)Nc1nc2ccc(F)cc2s1    inactive
CC(=O)c1c(C)[nH]c(C(=O)COC(=O)c2cccc(S(=O)(=O)N(C)c3ccccc3)c2)c1C    active

Record request — test call for "Cc1cc(CN(C)C(=O)c2cc(COc3ccc(C)c(C)c3)on2)n[nH]1" inactive

Record request — test call for "COc1ccc(CCNC(=O)CSc2nnc3ccc(-c4ccncc4)nn23)cc1" inactive

Record request — test call for "CCc1ccccc1NC(=O)Cc1cn(C)c2ccccc12" inactive

Record request — test call for CCCOc1ccc(N2CC(C(=O)Nc3ccccn3)CC2=O)cc1 (stereo unspecified) inactive

Record request — test call for "O=C(O)CCCC(=O)Nc1ccc(Oc2cccc(C(F)(F)F)c2)nc1" inactive

Record request — test call for "O=C(COC(=O)c1cncc(Br)c1)Nc1ccc(S(=O)(=O)N2CCOCC2)cc1" inactive

Record request — test call for Cc1ccc(NC(=O)CC2S/C(=N/N=C3\CCCc4ccccc43)NC2=O)cc1 (stereo unspecified) inactive

Record request — test call for CC1CCc2[nH]c3ccc(C(=O)N(C)CC(=O)Nc4cccc(F)c4)cc3c2C1 (stereo unspecified) inactive

Record request — test call for "O=C(CCCN1CCc2[nH]c3ccc(F)cc3c2C1)c1ccc(F)cc1" active

Record request — test call for "CN(C)c1ccc(CSc2ccccc2)cc1" inactive

Record request — test call for CC(OC(=O)CN1C(=O)C2CCCCC2C1=O)C(=O)Nc1ncc(Cl)cc1Cl (stereo unspecified) inactive

Record request — test call for "CN(C)c1ccc(/C=C2\NC(=S)N(Cc3ccccc3)C2=O)cc1" active

Record request — test call for CC(NC(=S)Nc1ccc(S(N)(=O)=O)cc1)c1ccc2c(c1)OCO2 (stereo unspecified) inactive

Record request — test call for Cc1ccc(NC(=O)C(C)c2cccc(C(=O)c3ccccc3)c2)cc1 (stereo unspecified) inactive

Record request — test call for "CCN(Cc1nc2ccccc2c(=O)[nH]1)Cc1cc(=O)oc2cc(C)c(C)cc12" inactive

Record request — test call for "N#CC1(Nc2ccc(-c3ccc(Cl)cc3)cc2)CCCC1" inactive

Record request — test call for "c1ccc(C(=NNc2nc3ccccc3s2)c2ccccn2)cc1" active

Record request — test call for "Cc1ccc(-c2nn(-c3ccccc3)cc2C(=O)NCCCN2CCCC2=O)cc1" inactive

Record request — test call for "O=C(COC(=O)c1ccc(Cl)nc1)NCc1ccc2c(c1)OCO2" inactive

Record request — test call for "Cc1cccc(C)c1NC(=S)N(Cc1cccnc1)Cc1ccccc1Cl" active
